Each item that follows carries a reported Kd.
- measurement.target: the molecule itself
- experiment.summary: DEER

[
  {
    "protein": "BIR1 C12A/E22C-GdI (domain or fragment, BrPSPy-DO3A-Gd3+ (GdI) spin label on C22 (E22C) via a thioether bond) KTAVPADINKEECFVEEFNRLKTFANFPSGSPVSASTLARAGFLYTGEGDTVRCFSCHAAVDRWQYGDSAVGRHRKVSPNCRFINGFYLE",
    "measurement.unit": "µM",
    "Kd": 126
  },
  {
    "protein": "BIR1 C12A/N28C-GdI (domain or fragment, BrPSPy-DO3A-Gd3+ (GdI) spin label on C28 (N28C) via a thioether bond) KTAVPADINKEEEFVEEFCRLKTFANFPSGSPVSASTLARAGFLYTGEGDTVRCFSCHAAVDRWQYGDSAVGRHRKVSPNCRFINGFYLE",
    "measurement.unit": "µM",
    "Kd": 126
  }
]
